Where do these numbers come from? They come from patent US20170107203A1.

- system tested: human Nav1.7 (Homo sapiens, UniProt Q15858)
- Construct: expressed in transfected cells
- Sequence (Q15858 whole entry): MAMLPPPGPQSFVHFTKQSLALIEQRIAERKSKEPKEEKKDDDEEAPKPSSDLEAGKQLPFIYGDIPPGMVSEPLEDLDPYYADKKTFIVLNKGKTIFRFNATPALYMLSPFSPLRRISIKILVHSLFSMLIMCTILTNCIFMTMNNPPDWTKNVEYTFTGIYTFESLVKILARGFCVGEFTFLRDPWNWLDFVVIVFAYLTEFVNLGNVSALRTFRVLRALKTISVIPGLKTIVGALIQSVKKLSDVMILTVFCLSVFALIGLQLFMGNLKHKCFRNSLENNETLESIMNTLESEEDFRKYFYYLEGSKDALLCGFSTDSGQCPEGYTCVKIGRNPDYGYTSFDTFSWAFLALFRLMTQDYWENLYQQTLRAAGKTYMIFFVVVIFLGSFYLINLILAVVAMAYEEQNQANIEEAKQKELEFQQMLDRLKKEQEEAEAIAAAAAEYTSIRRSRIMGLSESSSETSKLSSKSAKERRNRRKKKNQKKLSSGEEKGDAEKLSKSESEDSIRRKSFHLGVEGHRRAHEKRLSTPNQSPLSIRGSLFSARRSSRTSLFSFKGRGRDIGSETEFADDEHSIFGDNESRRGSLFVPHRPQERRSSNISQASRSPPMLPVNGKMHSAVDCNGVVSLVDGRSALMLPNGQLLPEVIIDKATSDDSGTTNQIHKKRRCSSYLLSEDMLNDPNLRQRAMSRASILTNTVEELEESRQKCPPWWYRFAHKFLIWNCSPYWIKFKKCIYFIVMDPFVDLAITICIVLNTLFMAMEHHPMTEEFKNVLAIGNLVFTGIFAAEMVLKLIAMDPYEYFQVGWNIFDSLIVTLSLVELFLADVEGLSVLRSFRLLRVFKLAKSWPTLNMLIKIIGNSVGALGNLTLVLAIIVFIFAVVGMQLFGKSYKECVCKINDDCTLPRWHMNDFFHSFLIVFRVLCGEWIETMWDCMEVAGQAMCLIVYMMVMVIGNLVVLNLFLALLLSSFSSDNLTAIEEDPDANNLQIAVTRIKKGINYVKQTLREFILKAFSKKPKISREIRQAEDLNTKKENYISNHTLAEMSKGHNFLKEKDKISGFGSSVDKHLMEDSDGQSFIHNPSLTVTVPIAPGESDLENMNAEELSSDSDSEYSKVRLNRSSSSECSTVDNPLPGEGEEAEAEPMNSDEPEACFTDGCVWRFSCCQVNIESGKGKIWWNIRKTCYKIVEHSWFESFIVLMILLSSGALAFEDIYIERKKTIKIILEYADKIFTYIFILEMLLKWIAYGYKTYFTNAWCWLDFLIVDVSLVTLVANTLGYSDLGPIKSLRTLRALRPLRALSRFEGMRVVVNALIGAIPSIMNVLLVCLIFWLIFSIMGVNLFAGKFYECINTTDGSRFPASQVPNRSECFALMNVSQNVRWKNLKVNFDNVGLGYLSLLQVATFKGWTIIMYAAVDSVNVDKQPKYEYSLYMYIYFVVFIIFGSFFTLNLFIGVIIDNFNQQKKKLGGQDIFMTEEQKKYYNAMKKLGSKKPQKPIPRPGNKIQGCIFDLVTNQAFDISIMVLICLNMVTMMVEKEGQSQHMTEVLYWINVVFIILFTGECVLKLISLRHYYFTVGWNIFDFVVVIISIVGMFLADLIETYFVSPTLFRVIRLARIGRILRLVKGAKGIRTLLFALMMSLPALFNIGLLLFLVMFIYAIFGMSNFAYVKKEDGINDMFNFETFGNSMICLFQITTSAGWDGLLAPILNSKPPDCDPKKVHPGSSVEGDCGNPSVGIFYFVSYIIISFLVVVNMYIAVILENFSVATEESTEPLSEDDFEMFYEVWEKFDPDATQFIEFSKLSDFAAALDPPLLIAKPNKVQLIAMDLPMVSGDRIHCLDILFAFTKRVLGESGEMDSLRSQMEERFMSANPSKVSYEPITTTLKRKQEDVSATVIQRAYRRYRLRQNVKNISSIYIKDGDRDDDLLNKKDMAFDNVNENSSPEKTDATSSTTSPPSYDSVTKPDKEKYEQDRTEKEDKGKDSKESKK
- Sequence (Q07699 19-218 partner): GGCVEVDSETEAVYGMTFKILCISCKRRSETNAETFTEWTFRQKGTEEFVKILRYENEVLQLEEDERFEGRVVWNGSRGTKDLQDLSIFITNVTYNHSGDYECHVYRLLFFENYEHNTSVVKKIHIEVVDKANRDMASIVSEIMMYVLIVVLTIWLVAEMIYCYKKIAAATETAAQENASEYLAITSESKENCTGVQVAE
- protocol description: Assessment of Nav1.7 activity on PatchXpress (voltage dependence / slow inactivation parameters)
- Assay type: cell-based
- recorded conditions: compound at 10 μM; relative to 0.2% DMSO vehicle control
Entries annotated with measured hNav1.7: Voltage dependence of activation (mV) VDEP
measured property: hNav1.7: Voltage dependence of activation (mV) VDEP

> print(dat)
                                    molecule                             system.tested  value.unit  reported.result
 1  COC[C@@H](N)C(=O)NCC(=O)NCc1cc(C(F)(F)F)cc(C(F)(F)F)c1  human Nav1.7 (Homo sapiens, UniProt Q15858)          mV             −9.3
 2  N[C@@H](Cc1ccccc1)c1nc2cc(C(F)(F)F)cc(C(F)(F)F)c2[nH]1  human Nav1.7 (Homo sapiens, UniProt Q15858)          mV             −9.5
 3  Cc1cccc(C)c1OCC(C)NC(=O)[C@H](N)C(C)C (some centres unmarked)  human Nav1.7 (Homo sapiens, UniProt Q15858)          mV            −7.30
 4  O=C(NCCOc1cc(C(F)(F)F)cc(C(F)(F)F)c1)C1CCCN1 (centres unmarked)  human Nav1.7 (Homo sapiens, UniProt Q15858)          mV            −4.00
 5  CC(C)C[C@H](N)CC(=O)NCCOc1cc(F)cc(C(F)(F)F)c1  human Nav1.7 (Homo sapiens, UniProt Q15858)          mV            −2.60
 6  NCC[C@@H]1Nc2c(cc(C(F)(F)F)cc2C(F)(F)F)NC1=O  human Nav1.7 (Homo sapiens, UniProt Q15858)          mV            −7.40
 7  N[C@H](Cc1cccc(F)c1)c1nc2cc(C(F)(F)F)cc(C(F)(F)F)c2[nH]1  human Nav1.7 (Homo sapiens, UniProt Q15858)          mV             −8.6
 8  COC[C@@H](NC(C)=O)C(=O)NCc1cc(C(F)(F)F)cc(C(F)(F)F)c1  human Nav1.7 (Homo sapiens, UniProt Q15858)          mV            −15.2
 9  CC(C)C[C@@H](N)C(=O)NC(C)COc1cc(C(F)(F)F)cc(C(F)(F)F)c1 (some centres unmarked)  human Nav1.7 (Homo sapiens, UniProt Q15858)          mV            −4.80
10  O[C@@H]1CN[C@H](c2nc3cc(C(F)(F)F)cc(C(F)(F)F)c3[nH]2)C1  human Nav1.7 (Homo sapiens, UniProt Q15858)          mV             −3.4
11  CN[C@H](CC(C)C)C(=O)NCCOc1cc(F)cc(C(F)(F)F)c1  human Nav1.7 (Homo sapiens, UniProt Q15858)          mV            −2.80
12  N[C@H](Cc1ccc(F)cc1)Cc1nc2cc(C(F)(F)F)cc(C(F)(F)F)c2[nH]1  human Nav1.7 (Homo sapiens, UniProt Q15858)          mV            −14.4
13  CC(C)(c1nc2cc(C(F)(F)F)cc(C(F)(F)F)c2[nH]1)N1CCNCC1=O  human Nav1.7 (Homo sapiens, UniProt Q15858)          mV             −8.3
14  CC12CC3CC(C)(C1)CC(NC(=O)[C@H]1CCCN1)(C3)C2  human Nav1.7 (Homo sapiens, UniProt Q15858)          mV           −11.40
15  COC[C@@H]1C(=O)N(Cc2cc(C(F)(F)F)cc(C(F)(F)F)c2)CCN1C(C)=O  human Nav1.7 (Homo sapiens, UniProt Q15858)          mV             −7.1
16  CC(C)(C)OC(=O)N[C@H](Cc1cccc(C(F)(F)F)c1)C(=O)NCc1nc2ccc(-c3ccc(F)c(Cl)c3)cc2[nH]1  human Nav1.7 (Homo sapiens, UniProt Q15858)          mV            −11.4
17  NC1(C(=O)NCCOc2cc(C(F)(F)F)cc(C(F)(F)F)c2)CC1  human Nav1.7 (Homo sapiens, UniProt Q15858)          mV            −5.20

====

- system tested: human Nav1.7 (Homo sapiens, UniProt Q15858)
- Construct: expressed in transfected cells
- protocol description: Assessment of Nav1.7 activity on PatchXpress (voltage dependence / slow inactivation parameters)
- Format: cell-based
- recorded conditions: compound at 10 μM; relative to 0.2% DMSO vehicle control; PatchXpress
Below, each entry is listed alongside its reported hNav1.7: Shift in voltage dependence of inactivation (mV) Delta Vhalf.
measured property: hNav1.7: Shift in voltage dependence of inactivation (mV) Delta Vhalf

> print(dat)
                                   compound                             system.tested  reported.result
1     NCC(=O)NCc1cc(C(F)(F)F)cc(C(F)(F)F)c1  human Nav1.7 (Homo sapiens, UniProt Q15858)          −4.2 mV
2  N[C@H](Cc1ccc(F)cc1)Cc1nc2cc(C(F)(F)F)cc(C(F)(F)F)c2[nH]1  human Nav1.7 (Homo sapiens, UniProt Q15858)         −16.8 mV
3  CC(C)C[C@H](N)CC(=O)NCCOc1cc(F)cc(C(F)(F)F)c1  human Nav1.7 (Homo sapiens, UniProt Q15858)        −11.90 mV
4  O=C(NCCOc1cc(C(F)(F)F)cc(C(F)(F)F)c1)C1CCCN1 (centres unmarked)  human Nav1.7 (Homo sapiens, UniProt Q15858)        −25.30 mV
5  C[C@@H](NC(=O)[C@H]1CCCN1)c1ccc(OCC(F)(F)F)cn1  human Nav1.7 (Homo sapiens, UniProt Q15858)          −1.5 mV

====

A collection of compounds and their measured IC50
- system tested: hNav1.7 (Homo sapiens, UniProt Q15858)
- Construct: expressed in transfected cells
- Sequence (Q15858 whole entry): as the sequence (Q15858 whole entry) above
- Sequence (Q07699 19-218 partner): as the sequence (Q07699 19-218 partner) above
- protocol description: Nav1.7 potency, Patchliner automated patch clamp
- Assay type: cell-based
- recorded conditions: slow inactivated state; automated patchclamp; read-out: Nav1.7 IC50 SLOW INACTIVATION BLOCK (nM) (Automated Patchclamp)
measured property: IC50 (nM)

> print(dat)
                                   compound                           system.tested  reported.result
1  N[C@@H](c1ccc(Cl)cc1)c1nc2cc(C(F)(F)F)cc(C(F)(F)F)c2[nH]1  hNav1.7 (Homo sapiens, UniProt Q15858)             2890
2  CC(C)C[C@@H](N)C(=O)NC(C)COc1cc(C(F)(F)F)cc(C(F)(F)F)c1 (stereo partly drawn)  hNav1.7 (Homo sapiens, UniProt Q15858)             2770
3  CC(C)C[C@@H](N)C(=O)N[C@@H](C)COc1cc(C(F)(F)F)cc(C(F)(F)F)c1  hNav1.7 (Homo sapiens, UniProt Q15858)             2580
4  CN[C@H](CC(C)C)C(=O)NCCOc1cc(F)cc(C(F)(F)F)c1  hNav1.7 (Homo sapiens, UniProt Q15858)             8120
5  CC(C)C[C@@H](N)C(=O)NC(COc1cc(C(F)(F)F)cc(C(F)(F)F)c1)c1ccccc1 (stereo partly drawn)  hNav1.7 (Homo sapiens, UniProt Q15858)             5320
6  CC(C)CC(N)C(=O)N[C@@H](C)COc1cc(C(F)(F)F)cc(C(F)(F)F)c1 (stereo partly drawn)  hNav1.7 (Homo sapiens, UniProt Q15858)             4120

====

- system tested: human Nav1.7 (Homo sapiens)
- Construct: expressed in transfected cells
- protocol description: Assessment of Nav1.7 activity on PatchXpress (voltage dependence / slow inactivation parameters)
- Format: cell-based
- recorded conditions: compound at 10 μM; relative to 0.2% DMSO vehicle control
hNav1.7: Voltage dependence of fast inactivation (mV) VDEP vs -5 mV: at or above is rule met, below is rule not met.

> print(dat)
                                    compound  qualitative.label
 1  CC(C)CC(N)C(=O)N[C@H](C)COc1cc(C(F)(F)F)cc(C(F)(F)F)c1 (stereo partly drawn) [Compound 5]       rule not met
 2  CC(C)CC(N)C(=O)N[C@@H](C)COc1cc(C(F)(F)F)cc(C(F)(F)F)c1 (stereo partly drawn) [Compound 10]           rule met
 3  C[C@@H](NC(=O)[C@@H]1CCCN1)c1ccc(OCC(F)(F)F)cn1 [Compound 82]       rule not met
 4  O=C(NC12CC3CC(CC(C3)C1)C2)[C@@H]1CCCN1 [Compound 45]       rule not met
 5  O=C(NCCc1c[nH]c2ccc(F)cc12)[C@@H]1CCCN1 [Compound 48]           rule met
 6  O=C(NCC12CC3CC(CC(C3)C1)C2)[C@H]1CCCN1 [Compound 44]       rule not met
 7  N[C@H](C(=O)NCCOc1cc(C(F)(F)F)cc(C(F)(F)F)c1)c1ccccc1 [Compound 9]       rule not met
 8  CC1(c2cc(C(F)(F)F)cc(C(F)(F)F)c2)NC(=O)NC1=O (stereo not drawn) [Compound 42]           rule met
 9  Cc1cccc(C)c1OCC(C)NC(=O)CN (stereo not drawn) [Compound 17]       rule not met
10  N[C@@H](Cc1ccccc1)Cc1nc2cc(C(F)(F)F)cc(C(F)(F)F)c2[nH]1 [Compound 53]           rule met
11  O=C1NC(=O)C(c2cc(C(F)(F)F)cc(C(F)(F)F)c2)N1 (stereo not drawn) [Compound 41]       rule not met
12  N[C@H](Cc1ccc(F)cc1)Cc1nc2cc(C(F)(F)F)cc(C(F)(F)F)c2[nH]1 [Compound 56]           rule met
13  Cc1cccc(C)c1OCC(C)NC(=O)C(C)(C)N1CCNCC1=O (stereo not drawn) [Compound 37]       rule not met
14  NC[C@@H]1Nc2c(cc(C(F)(F)F)cc2C(F)(F)F)NC1=O [Compound 40]           rule met
15  CC(C)C[C@@H](N)C(=O)NC(C)COc1cc(C(F)(F)F)cc(C(F)(F)F)c1 (stereo partly drawn) [Compound 6]       rule not met
16  FC(F)(F)c1cc(C(F)(F)F)c2[nH]c(C3NCc4ccccc43)nc2c1 (stereo not drawn) [Compound 59]       rule not met
17  CC(C)(C)OC(=O)N[C@H](Cc1cccc(C(F)(F)F)c1)C(=O)NCc1nc2ccc(-c3ccc(F)c(Cl)c3)cc2[nH]1 [Compound 76]           rule met
18  CC[C@H](C)[C@H](N)C(=O)NCCOc1cc(C(F)(F)F)cc(C(F)(F)F)c1 [Compound 7]       rule not met
19  CN[C@H](CC(C)C)C(=O)NCCOc1cc(F)cc(C(F)(F)F)c1 [Compound 16]           rule met
20  N[C@H](Cc1cccc(F)c1)c1nc2cc(C(F)(F)F)cc(C(F)(F)F)c2[nH]1 [Compound 55]       rule not met
21  CC(C)C[C@@H](N)C(=O)N[C@@H](C)COc1cc(C(F)(F)F)cc(C(F)(F)F)c1 [Compound 1]       rule not met
22  COC[C@@H](N)C(=O)NCC(=O)NCc1cc(C(F)(F)F)cc(C(F)(F)F)c1 [Compound 80]           rule met
23  Cc1cccc(C)c1OCC(C)NC(=O)[C@H](N)C(C)C (stereo partly drawn) [Compound 12]           rule met
24  N[C@H]1CCCC[C@H]1C(=O)NCCOc1cc(C(F)(F)F)cc(C(F)(F)F)c1 [Compound 8]       rule not met
25  NCC(=O)NCc1cc(C(F)(F)F)cc(C(F)(F)F)c1 [Compound 78]           rule met
